Overview of reported IC50 across a group of compounds:
# System: human GPR91 receptor (Homo sapiens, UniProt Q9BXA5)
# Construct: expressed in transfected cells; host or cells: CHO-K1 NFAT cells
# Sequence (Q9BXA5 whole entry): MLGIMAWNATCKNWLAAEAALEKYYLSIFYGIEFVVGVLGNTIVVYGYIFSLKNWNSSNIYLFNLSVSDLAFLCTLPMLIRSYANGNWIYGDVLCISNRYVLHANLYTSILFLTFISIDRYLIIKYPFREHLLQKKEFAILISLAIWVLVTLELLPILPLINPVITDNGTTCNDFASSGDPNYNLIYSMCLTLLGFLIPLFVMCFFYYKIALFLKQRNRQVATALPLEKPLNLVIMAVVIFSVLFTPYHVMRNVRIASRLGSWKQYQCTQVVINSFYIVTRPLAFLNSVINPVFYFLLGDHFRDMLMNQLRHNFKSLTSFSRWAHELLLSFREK
# Protocol Details: Human GPR91 calcium mobilization assay
# Assay type: cell-based
# Stated Conditions: CHO-K1 NFAT cells over expressing human GPR91 receptor; Fluo4 AM; agonist sodium succinate; flex station; read-out: hGPR91 IC50 (μM)*

Guide cases for IC50, answers given:
{"Compound": "O=C(O)Cc1cccc(Oc2ccc(Oc3ccc4cn(C5COC5)nc4c3)cc2C(F)(F)F)c1", "System": "human GPR91 receptor (Homo sapiens, UniProt Q9BXA5)", "IC50": "< 5 µM"}
{"Compound": "O=C(O)Cc1cccc(Oc2ccc(Oc3ccc4ncn(C5COC5)c4c3)cc2C(F)(F)F)c1", "System": "human GPR91 receptor (Homo sapiens, UniProt Q9BXA5)", "IC50": "< 5 µM"}
{"Compound": "O=C(O)Cc1cccc(Oc2ccc(Oc3ccc4ccn(C5COC5)c4n3)cc2C(F)(F)F)c1", "System": "human GPR91 receptor (Homo sapiens, UniProt Q9BXA5)", "IC50": "> 10 µM"}
{"Compound": "O=C(O)Cc1cccc(Oc2ccc(Oc3cccc4ccnc(Cl)c34)cc2C(F)(F)F)c1", "System": "human GPR91 receptor (Homo sapiens, UniProt Q9BXA5)", "IC50": "< 5 µM"}
{"Compound": "O=C(O)Cc1cccc(Oc2ccc(Oc3cccn4cncc34)cc2C(F)(F)F)c1", "System": "human GPR91 receptor (Homo sapiens, UniProt Q9BXA5)", "IC50": "< 5 µM"}

// recorded IC50 for O=C(O)Cc1cccc(Oc2ccc(Oc3ccc4c(c3)NCCO4)cc2C(F)(F)F)c1 : < 5 µM

// recorded IC50 for O=C(O)Cc1cccc(Oc2ccc(Oc3ccc4ccn(CC(=O)O)c4c3)cc2C(F)(F)F)c1 : < 5 µM

// recorded IC50 for O=C(O)Cc1cccc(Oc2ccc(Oc3cccc4ccncc34)c(C(F)(F)F)c2)c1 : > 10 µM

// recorded IC50 for O=C(O)CCc1cccc(Oc2ccc(OC3CCc4ccccc43)cc2C(F)(F)F)c1 (centres unmarked) : 5 to 10 µM

Attribution: patent US11098026B2
